Data credit: the supplement of paper PMC8967900

Can you tell me selective drug sensitivity score for the items I'm about to list?
Test system: MOLT-16;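 further: ALL cell lines in 384-well plates, five doses spanning 10,000-fold, each plate scaled between vehicle and 100 µmol/L benzalkonium chloride controls, sDSS an adapted area-under-curve metric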
Assay: selective drug sensitivity score (sDSS, relative to normal bone marrow) (sDSS (score)); higher = more potent and effective on the cell line relative to normal bone marrow cells
Settings: 72 h
Answers are plain numbers.

>  <compound>
Cc1cc(Nc2cc(CN3CCOCC3)c3nc(C)c(Cc4ccc(Cl)cc4F)n3n2)n[nH]1 [Gandotinib] (top concentration 10000 nM)

>  <recorded_value>
5.68

$$$$
>  <compound>
C[C@@H](C(=O)O)c1ccc(-c2ccccc2)c(F)c1 [Tarenflurbil] (top concentration 10000 nM)

>  <recorded_value>
5.04

$$$$

Below is a list of compounds. For each, state its recorded selective drug sensitivity score.
1. FC(F)(F)c1ccc(/C=C/c2nc(COc3ccc(CCCCn4ccnn4)cc3)co2)cc1 [Mubritinib] (top concentration 1000 nM)
2. Cc1cnc(Nc2ccc(OCCN3CCCC3)cc2)nc1Nc1cccc(S(=O)(=O)NC(C)(C)C)c1 [Fedratinib] (top concentration 10000 nM)
3. COc1cccc2c1c(O)c(C(=O)N(C)c1ccc(C(F)(F)F)cc1)c(=O)n2C [Tasquinimod] (top concentration 10000 nM)

Resp:
1: 18.6; 2: -1.06; 3: -0.42

Below is a list of compounds. For each, state its recorded selective drug sensitivity score.
1. CN(C)C(=N)NC(=N)N [Metformin] (top concentration 100000 nM)
2. Clc1ccc(Nc2nnc(Cc3ccncc3)c3ccccc23)cc1 [Vatalanib] (top concentration 10000 nM)

Resp:
[-0.02, 0]
